Collected IC50 values appear next to each entry.
- testTarget: CDK12 wt/CycK (Homo sapiens (Human))
- methodNotes: Radiometric protein kinase assay (33PanQinase), Assay Condition A (thiol containing)
- recordedConditions: thiol containing (1.2 mM DTT), ATP 0.3 μM

{"structureSmilesString": "C=CC(=O)Nc1ccc(C(=O)N2CC[C@@H](Nc3ncc4ccc(C(=O)O)cc4n3)C2)cc1", "IC50": "≤ 100 nM"}
{"structureSmilesString": "CCC(=O)Nc1ccc(C(=O)N2CCC[C@@H](Nc3ncc4ccc(S(C)(=O)=O)cc4n3)C2)cc1", "IC50": "10000 to 30000 nM"}
{"structureSmilesString": "CCC(=O)Nc1ccc(C(=O)N2CC[C@@H](Nc3ncc4ccc(=O)[nH]c4n3)C2)cc1", "IC50": "≤ 100 nM"}
{"structureSmilesString": "CCC(=O)Nc1ccc(C(=O)N2CC[C@@H](Nc3ncc4ccccc4n3)C2)cc1", "IC50": "100 to 1000 nM"}
{"structureSmilesString": "CCC(=O)Nc1ccc(C(=O)N2CC[C@@H](Nc3ncc4cc(Cl)ccc4n3)C2)cc1", "IC50": "100 to 1000 nM"}
{"structureSmilesString": "CC#CC(=O)Nc1ccc(C(=O)N2CC[C@@H](Nc3ncc4ccccc4n3)C2)cc1", "IC50": "≤ 100 nM"}
{"structureSmilesString": "CN(C)C/C=C/C(=O)Nc1ccc(C(=O)N2CCC[C@@H](Nc3ncc4ccccc4n3)C2)cc1", "IC50": "1000 to 10000 nM"}
{"structureSmilesString": "C=CC(=O)Nc1ccc(C(=O)N2CCC[C@@H](Nc3ncc4cc(OC)ccc4n3)C2)cc1", "IC50": "30000 to 100000 nM"}
{"structureSmilesString": "CN(C)C/C=C/C(=O)Nc1ccc(C(=O)N2CC[C@@H](Nc3ncc4ccccc4n3)C2)cc1Cl", "IC50": "100 to 1000 nM"}
{"structureSmilesString": "CCC(=O)Nc1ccc(C(=O)N2CC[C@@H](Nc3ncc4ccc(F)cc4n3)C2)cc1", "IC50": "100 to 1000 nM"}
{"structureSmilesString": "CCC(=O)Nc1ccc(C(=O)N2CCC[C@@H](Nc3cc4ccccc4cn3)C2)cc1", "IC50": "10000 to 30000 nM"}
{"structureSmilesString": "C=CC(=O)Nc1ccc(C(=O)N2CCC[C@@H](Nc3ncc4ccc(S(C)(=O)=O)cc4n3)C2)cc1", "IC50": "1000 to 10000 nM"}
{"structureSmilesString": "C=CC(=O)Nc1ccc(C(=O)N2CC[C@@H](Nc3ncc4cc(Cl)ccc4n3)C2)cc1", "IC50": "≤ 100 nM"}
{"structureSmilesString": "C=CC(=O)Nc1ccc(C(=O)N2CC[C@@H](Nc3ncc4ccc(C(N)=O)cc4n3)C2)cc1", "IC50": "≤ 100 nM"}
{"structureSmilesString": "C=CC(=O)Nc1ccc(C(=O)N2C[C@H](Nc3ncc4ccccc4n3)[C@@H](C)C2)cc1", "IC50": "1000 to 10000 nM"}
{"structureSmilesString": "C=CC(=O)Nc1ccc(C(=O)N2CC[C@@H](Nc3ncc4cc(F)ccc4n3)C2)cc1C", "IC50": "≤ 100 nM"}
{"structureSmilesString": "C=CC(=O)Nc1ccc(C(=O)N2CCC[C@@H](Nc3ncc4ccc(OC)cc4n3)C2)cc1", "IC50": "10000 to 30000 nM"}
{"structureSmilesString": "C=CC(=O)Nc1ccc(C(=O)N2CCC[C@@H](Nc3cc4ccccc4cn3)C2)cc1", "IC50": "1000 to 10000 nM"}
{"structureSmilesString": "C=CC(=O)Nc1ccc(C(=O)N2CCC[C@@H](Nc3ncc4ccc(=O)[nH]c4n3)C2)cc1", "IC50": "10000 to 30000 nM"}
{"structureSmilesString": "CCC(=O)Nc1ccc(C(=O)N2CCC[C@@H](Nc3ncc4ccc(OC)cc4n3)C2)cc1", "IC50": "30000 to 100000 nM"}
{"structureSmilesString": "C#CC(=O)Nc1ccc(C(=O)N2CC[C@@H](Nc3ncc4ccccc4n3)C2)cc1", "IC50": "≤ 100 nM"}
{"structureSmilesString": "CCC(=O)Nc1ccc(C(=O)N2CC[C@@H](Nc3ncc4ccc(OC)cc4n3)C2)cc1", "IC50": "100 to 1000 nM"}
{"structureSmilesString": "CCC(=O)Nc1ccc(C(=O)N2CC[C@@H](Nc3ncc4ccc(C(N)=O)cc4n3)C2)cc1", "IC50": "≤ 100 nM"}
{"structureSmilesString": "C=CC(=O)Nc1ccc(C(=O)N2CC[C@@H](Nc3ncc4ccncc4n3)C2)cc1", "IC50": "≤ 100 nM"}
{"structureSmilesString": "C=CC(=O)Nc1ccc(C(=O)N2CC[C@@H](Nc3ncc4cc(F)ccc4n3)C2)cc1F", "IC50": "≤ 100 nM"}
{"structureSmilesString": "C=CS(=O)(=O)Nc1ccc(C(=O)N2CC[C@@H](Nc3ncc4ccccc4n3)C2)cc1", "IC50": "100 to 1000 nM"}
{"structureSmilesString": "C=CC(=O)Nc1ccc(C(=O)N2CC[C@@H](Nc3ncc4ccc(S(C)(=O)=O)cc4n3)C2)cc1", "IC50": "≤ 100 nM"}
{"structureSmilesString": "C=CC(=O)Nc1ccc(C(=O)N2CC[C@@H](Nc3ncc4ccc(S(C)(=O)=O)cc4n3)C2)cc1C", "IC50": "≤ 100 nM"}
{"structureSmilesString": "CCC(=O)Nc1ccc(C(=O)N2CC[C@@H](Nc3ncc4cc(C)ccc4n3)C2)cc1", "IC50": "1000 to 10000 nM"}
{"structureSmilesString": "C=CC(=O)Nc1ccc(C(=O)N2CC[C@@H](Nc3ncc4ccccc4n3)C2)cc1C", "IC50": "≤ 100 nM"}
{"structureSmilesString": "CN(C)C/C=C/C(=O)N1CCCc2cc(C(=O)N3CC[C@@H](Nc4ncc5ccccc5n4)C3)ccc21", "IC50": "100 to 1000 nM"}
{"structureSmilesString": "C=CC(=O)Nc1ccc(C(=O)N2CC[C@@H](Nc3ncc4ccccc4n3)C2)c(C)c1", "IC50": "100 to 1000 nM"}

###

- testTarget: CDK12 wt/CycK (Homo sapiens (Human), UniProt Q9NYV4)
- Sequence (Q9NYV4 whole entry): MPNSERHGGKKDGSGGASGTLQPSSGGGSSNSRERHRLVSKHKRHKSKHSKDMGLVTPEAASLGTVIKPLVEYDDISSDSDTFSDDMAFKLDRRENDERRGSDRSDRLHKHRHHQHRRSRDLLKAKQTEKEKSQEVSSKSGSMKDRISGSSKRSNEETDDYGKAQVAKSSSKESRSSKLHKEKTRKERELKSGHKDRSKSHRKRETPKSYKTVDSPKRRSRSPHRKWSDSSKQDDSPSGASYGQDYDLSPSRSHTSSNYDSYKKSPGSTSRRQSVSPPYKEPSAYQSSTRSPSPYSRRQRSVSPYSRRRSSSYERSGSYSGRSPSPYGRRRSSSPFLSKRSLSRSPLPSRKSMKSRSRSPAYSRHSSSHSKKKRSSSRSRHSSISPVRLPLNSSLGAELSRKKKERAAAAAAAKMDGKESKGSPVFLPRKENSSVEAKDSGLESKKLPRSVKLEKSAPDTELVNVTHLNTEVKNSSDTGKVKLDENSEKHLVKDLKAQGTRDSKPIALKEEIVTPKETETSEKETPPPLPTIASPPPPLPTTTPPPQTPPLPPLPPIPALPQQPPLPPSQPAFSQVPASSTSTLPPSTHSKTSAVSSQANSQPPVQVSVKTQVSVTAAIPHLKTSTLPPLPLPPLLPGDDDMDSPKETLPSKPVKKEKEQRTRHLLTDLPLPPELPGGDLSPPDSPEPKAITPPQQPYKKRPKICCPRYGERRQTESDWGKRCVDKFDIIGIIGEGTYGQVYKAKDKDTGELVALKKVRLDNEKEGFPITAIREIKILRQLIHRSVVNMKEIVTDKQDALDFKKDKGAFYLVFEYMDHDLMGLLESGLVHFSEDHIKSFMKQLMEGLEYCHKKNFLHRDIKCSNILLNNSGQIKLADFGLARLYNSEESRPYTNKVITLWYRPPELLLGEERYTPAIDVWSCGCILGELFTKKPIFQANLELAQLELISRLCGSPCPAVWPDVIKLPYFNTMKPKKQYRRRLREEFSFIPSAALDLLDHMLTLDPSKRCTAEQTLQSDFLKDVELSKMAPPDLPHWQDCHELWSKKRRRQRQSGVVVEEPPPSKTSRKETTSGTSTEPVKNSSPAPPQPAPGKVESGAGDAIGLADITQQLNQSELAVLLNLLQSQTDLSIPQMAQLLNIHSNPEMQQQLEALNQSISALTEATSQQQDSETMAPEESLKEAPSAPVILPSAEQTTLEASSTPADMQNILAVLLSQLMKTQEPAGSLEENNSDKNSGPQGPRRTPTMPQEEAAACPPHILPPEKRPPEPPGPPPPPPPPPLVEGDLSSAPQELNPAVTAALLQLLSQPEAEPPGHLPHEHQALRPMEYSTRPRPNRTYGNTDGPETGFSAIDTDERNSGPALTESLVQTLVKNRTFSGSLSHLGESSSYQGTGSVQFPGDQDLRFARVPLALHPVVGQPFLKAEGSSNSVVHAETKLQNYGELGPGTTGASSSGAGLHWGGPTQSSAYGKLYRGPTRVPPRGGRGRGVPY
- Sequence (O75909 whole entry partner): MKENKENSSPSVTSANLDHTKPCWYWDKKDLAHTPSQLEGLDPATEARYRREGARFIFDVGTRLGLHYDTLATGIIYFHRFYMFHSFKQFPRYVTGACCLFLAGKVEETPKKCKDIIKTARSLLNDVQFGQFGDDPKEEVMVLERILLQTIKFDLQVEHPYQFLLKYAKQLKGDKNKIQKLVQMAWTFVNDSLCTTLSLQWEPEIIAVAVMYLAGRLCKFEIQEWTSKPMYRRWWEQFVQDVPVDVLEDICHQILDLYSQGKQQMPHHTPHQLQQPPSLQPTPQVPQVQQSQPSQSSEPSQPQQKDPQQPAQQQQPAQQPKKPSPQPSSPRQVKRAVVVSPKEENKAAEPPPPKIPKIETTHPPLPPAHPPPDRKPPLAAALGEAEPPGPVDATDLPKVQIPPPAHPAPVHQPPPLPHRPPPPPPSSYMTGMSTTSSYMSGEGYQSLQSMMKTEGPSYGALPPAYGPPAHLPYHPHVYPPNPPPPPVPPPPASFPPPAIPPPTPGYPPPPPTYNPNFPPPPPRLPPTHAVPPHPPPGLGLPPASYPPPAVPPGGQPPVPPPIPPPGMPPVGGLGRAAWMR
- methodNotes: Radiometric protein kinase assay (33PanQinase), Assay Condition A (thiol containing)
- recordedConditions: thiol containing (1.2 mM DTT), ATP 0.3 μM
- Experimental: The IC50 profile of test compounds was determined using three protein kinases. The compounds were provided as pre-weighed powders in vials. The compounds were dissolved to 1×10^−02M by adding DMSO. 100 μl of each of the resulting stock solutions were transferred into column 2 of four 96 well “master plates”. […] The reaction cocktails were incubated at 30° C. for 60 minutes. […] Incorporation of ^33Pi was determined with a microplate scintillation counter (Microbeta, Wallac). […]

{"structureSmilesString": "C=CC(=O)Nc1ccc(C(=O)N2CC[C@@H](Nc3ncc4cccc(F)c4n3)C2)cc1", "testTarget": "CDK12 wt/CycK (Homo sapiens (Human), UniProt Q9NYV4)", "IC50": "100 to 1000 nM"}
{"structureSmilesString": "C=CC(=O)Nc1ccc(C(=O)N2CCC[C@@H](Nc3ncc4cc(C)ccc4n3)C2)cc1", "testTarget": "CDK12 wt/CycK (Homo sapiens (Human), UniProt Q9NYV4)", "IC50": "10000 to 30000 nM"}
{"structureSmilesString": "C=CC(=O)Nc1ccc(C(=O)N2CCC[C@@H](Nc3ncc4ccc(C(N)=O)cc4n3)C2)cc1", "testTarget": "CDK12 wt/CycK (Homo sapiens (Human), UniProt Q9NYV4)", "IC50": "100 to 1000 nM"}
{"structureSmilesString": "CCC(=O)Nc1ccc(C(=O)N2CC[C@@H](Nc3ncc4ccc(C(=O)O)cc4n3)C2)cc1", "testTarget": "CDK12 wt/CycK (Homo sapiens (Human), UniProt Q9NYV4)", "IC50": "≤ 100 nM"}
{"structureSmilesString": "C=CC(=O)Nc1ccc(C(=O)N2CC[C@@H](Nc3ncc4ccc(F)cc4n3)C2)cc1", "testTarget": "CDK12 wt/CycK (Homo sapiens (Human), UniProt Q9NYV4)", "IC50": "≤ 100 nM"}
{"structureSmilesString": "C=CC(=O)Nc1ccc(C(=O)N2CCC[C@@H](Nc3ncc4ccc(Cl)cc4n3)C2)cc1", "testTarget": "CDK12 wt/CycK (Homo sapiens (Human), UniProt Q9NYV4)", "IC50": "1000 to 10000 nM"}
{"structureSmilesString": "C=CC(=O)Nc1ccc(C(=O)N2CC[C@@H](Nc3ncc4ccc(C(=O)N(C)C)cc4n3)C2)cc1", "testTarget": "CDK12 wt/CycK (Homo sapiens (Human), UniProt Q9NYV4)", "IC50": "≤ 100 nM"}
{"structureSmilesString": "C=CC(=O)Nc1ccc(C(=O)N2CC[C@@H](Nc3ncc4ccccc4n3)C2)cc1OC", "testTarget": "CDK12 wt/CycK (Homo sapiens (Human), UniProt Q9NYV4)", "IC50": "≤ 100 nM"}
{"structureSmilesString": "C=CC(=O)Nc1ccc(C(=O)N2CC[C@@H](Nc3ncc4ccccc4n3)C2)cc1", "testTarget": "CDK12 wt/CycK (Homo sapiens (Human), UniProt Q9NYV4)", "IC50": "≤ 100 nM"}
